# Target Desc: aldehyde oxidase (AO) (Homo sapiens, UniProt Q06278)
# Sequence (Q06278 1-1338): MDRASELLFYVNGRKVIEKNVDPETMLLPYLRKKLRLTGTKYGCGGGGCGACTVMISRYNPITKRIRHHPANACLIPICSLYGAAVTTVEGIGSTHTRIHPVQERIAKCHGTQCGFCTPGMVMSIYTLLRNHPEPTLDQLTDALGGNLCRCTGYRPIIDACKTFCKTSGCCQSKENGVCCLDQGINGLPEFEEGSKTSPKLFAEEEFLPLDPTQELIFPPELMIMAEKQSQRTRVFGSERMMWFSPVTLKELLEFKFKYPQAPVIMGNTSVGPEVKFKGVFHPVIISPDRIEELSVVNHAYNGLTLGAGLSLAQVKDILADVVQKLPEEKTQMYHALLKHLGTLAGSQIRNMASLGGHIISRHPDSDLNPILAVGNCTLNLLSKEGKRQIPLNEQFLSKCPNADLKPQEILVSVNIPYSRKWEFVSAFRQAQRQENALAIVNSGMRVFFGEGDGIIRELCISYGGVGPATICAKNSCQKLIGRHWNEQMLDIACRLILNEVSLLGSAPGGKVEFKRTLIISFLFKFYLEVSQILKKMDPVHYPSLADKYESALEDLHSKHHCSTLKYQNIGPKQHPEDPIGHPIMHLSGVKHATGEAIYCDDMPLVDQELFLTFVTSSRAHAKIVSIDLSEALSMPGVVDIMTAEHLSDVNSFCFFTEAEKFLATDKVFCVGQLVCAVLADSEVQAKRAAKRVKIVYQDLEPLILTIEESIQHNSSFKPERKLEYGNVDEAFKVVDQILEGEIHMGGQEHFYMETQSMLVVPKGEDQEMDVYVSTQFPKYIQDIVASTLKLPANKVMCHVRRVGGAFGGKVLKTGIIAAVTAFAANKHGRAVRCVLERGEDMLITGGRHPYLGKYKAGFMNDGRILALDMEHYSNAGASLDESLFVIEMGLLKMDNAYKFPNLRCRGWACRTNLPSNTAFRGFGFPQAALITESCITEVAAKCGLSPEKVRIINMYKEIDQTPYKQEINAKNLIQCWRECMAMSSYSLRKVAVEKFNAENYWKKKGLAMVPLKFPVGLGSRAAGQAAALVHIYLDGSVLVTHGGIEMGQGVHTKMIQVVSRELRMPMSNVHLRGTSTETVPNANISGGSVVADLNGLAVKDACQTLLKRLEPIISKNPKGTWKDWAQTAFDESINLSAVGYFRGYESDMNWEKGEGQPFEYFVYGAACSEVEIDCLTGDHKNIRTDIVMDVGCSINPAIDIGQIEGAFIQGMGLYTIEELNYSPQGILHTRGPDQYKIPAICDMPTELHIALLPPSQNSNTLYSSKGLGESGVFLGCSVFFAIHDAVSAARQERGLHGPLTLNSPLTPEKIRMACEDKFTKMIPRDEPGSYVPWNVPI
# Procedure Summary: In vitro AO inhibition (literature)
# Stated Conditions: cytosol, KI,u, Figure 5
Measurement Type: pKi
Numbers only, as −log10 of the molar value.

Ask | Give pKi (aldehyde oxidase (AO) (Homo sapiens, UniProt Q06278)) of the following compound: C#Cc1cccc(Nc2ncnc3cc4c(cc23)OCCOCCOCCO4)c1
Reply | 6.04

* * *

# Procedure Summary: Microsomal clearance incubations (substrate depletion)
# Stated Conditions: both, human, microsomes
Measurement Type: microsomal CLint at 1 µM (µL/min/mg)
One number for each entry, in µL/min/mg.

Ask | Report microsomal CLint at 1 µM for CCN(C(C)=O)c1cccc(-c2ccnc3c(C#N)cnn23)c1 please.
Reply | 5.95

Reference source for all entries: paper PMC11706420
